Molecular target: T1, human CD20 (human, UniProt P11836 1-297)
T1 sequence (looked up): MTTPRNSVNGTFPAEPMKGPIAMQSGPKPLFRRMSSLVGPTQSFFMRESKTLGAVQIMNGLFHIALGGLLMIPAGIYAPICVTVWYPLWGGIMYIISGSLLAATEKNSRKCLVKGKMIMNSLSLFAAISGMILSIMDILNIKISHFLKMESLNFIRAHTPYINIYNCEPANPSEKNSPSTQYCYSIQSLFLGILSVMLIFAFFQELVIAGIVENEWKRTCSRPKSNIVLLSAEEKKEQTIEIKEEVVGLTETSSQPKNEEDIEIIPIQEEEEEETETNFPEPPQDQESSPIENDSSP
Assay: cell-based or functional assay
MEASUREMENT KIND: EC50 µg/ml Ramos CDC (µg/mL)
Express the result in µg/mL but write the number alone.

Problem: For the binder mAb 2.1.2 (ATCC Accession Number PTA-7328) (antibody, human IgG1, V domains shown, Human IgG1 kappa; also called 2.1.1; 50-001H2_1_1) VH: EVQLVQSGAEVKKPGESLKISCKGSGYSFTSYWIGWVRQMPGKGLEWMGIIYPGDSDTRYSPSFQGQVTISADKSISTAYLQWSSLKASDTAMYYCARQGDFWSGYGGMDVWGQGTTVTVSS VL: DIVMTQTPHSSPVTLGQPASISCRSSQSLVSRDGNTYLSWLQQRPGQPPRLLIYKISNRFSGVPNRFSGSGAGTDFTLKISRVKAEDVGVYYCMQATQFPLTFGQGTRLEIK , what EC50 µg/ml Ramos CDC is on record?
Solution: 0.16

Problem: For the binder mAb 1.6.2 (antibody, human IgG1, V domains shown) VH: EVQLVQSGAEVKKPGESLKISCKGSGYSFTSYWIGWVRQMPGKGLEWMGIIYPGDSDTRYSPSFQGQVTISADKSISTAYLQWSSLKASDTAMYYCARHGDYSNIDAFDIWGQGTMVTVSS VL: DVVMTQSPLSLPVTLGQPASISCRSSQSLVYSDGNAYLNWFQQRPGQSPRRLIYKVSNWDSGVPDRFSGSGSGTDFTLKIRRVEAEDVGAYYCMQGIHCTFGPGTKVHIK , what EC50 µg/ml Ramos CDC is on record?
Solution: 0.31

Problem: For the binder mAb 2.2.2 (antibody, human IgG1, V domains shown) VH: EVQLVQSGAEVKKPGESLKISCKGSGYSFTSYWIGWVRQMPGKGLEWMGIIYPGDSDTKYSPSFQGQVTISADKSISTAYLQWSSLKASDTAMYYCARQGDFWSGNGGMDVWGQGTTVTVSS VL: DIVMTQTPLSSPVTLGQPASISCRSSQSLVSRDGNTYLSWLQQRPGQPPRLLIYKISNRFSGVPDRFSGSGAGTDFTLKISRVEVEDVGVYYCMQATQFPITFGQGTRLEIK , what EC50 µg/ml Ramos CDC is on record?
Solution: 1.03

Source of measurements: patent US20070014720A1
